Ref: PubChem BioAssay (NCI)

Test system: IGROV1 ovarian
TEST: NCI tumour cell line growth inhibition, 48 h
Recorded measurements of TGI, one per entry

// known answers, use as guide
COMPOUND	REPORTED MEASUREMENT
O=S1(=O)CCC2=CC(C(F)(F)F)=CC(C(F)(F)F)=CN21	3.66 µM
CCOC(=O)NN1C(=O)C(=P(c2ccccc2)(c2ccccc2)c2ccccc2)C(C(=O)OC)=C1C	> 100 µM

Q) Which TGI reading was recorded for the compound CSCc1ncc(-c2ccc(C(F)(F)F)cc2)c(NC2CCCCCC2)n1 ?
A) > 10 µM

Q) Ok, now Nc1ccc(C(=O)N/C(=C\c2ccc3c(c2)OCO3)c2nc3ccccc3s2)cc1
A) 31.7 µM
